All values here come from patent US6667333B2.

Please provide measured melting point for the entries that follow.

Looking up CSC1(C)CCC(=O)C(C(=O)c2ccc(S(C)(=O)=O)c(C3=NOC4CC34)c2C)=C1O (centres unmarked) [Compound 2.5] , I found its melting point recorded as 100 to 106 °C

Consider Cc1c(C(=O)C2=C(O)CC(C)(C)CC2=O)ccc(S(C)(=O)=O)c1C1=NOC2(C)CC12 (centres unmarked) [Compound 2.8] . Its measured melting point is 112 to 120 °C

Form: compound = Cc1c(C(=O)C2=C(O)CC(C)(C)CC2=O)ccc(S(C)(=O)=O)c1C1=NOC2CC12C (centres unmarked) [Compound 2.13] ; melting point = 120 to 127 °C

// sample Cc1c(C(=O)C2=C(O)C(C)CC(C)C2=O)ccc(S(C)(=O)=O)c1C1=NOC2(C)CC12 (centres unmarked) [Compound 2.12] , its melting point was 98 to 112 °C

Value of melting point reported for the compound Cc1c(C(=O)C2=C(O)C(C)(C)CCC2=O)ccc(S(C)(=O)=O)c1C1=NOC2(C)CC12 (centres unmarked) [Compound 2.14] is 120 to 130 °C

Entry CC1(C)CC(=O)C(C(=O)c2ccc(S(C)(=O)=O)c(C3=NOC4CC34)c2Cl)=C(O)C1 (centres unmarked) [Compound 2.7] ; melting point = 101 to 105 °C

The recorded melting point for entry Cc1c(C(=O)C2=C(O)C(C)CC(C)C2=O)ccc(S(C)(=O)=O)c1C1=NOC2CC12 (centres unmarked) [Compound 2.3] equals 90 to 96 °C

Lab book: melting point of Cc1c(C(=O)C2=C(O)CC(C)(C)CC2=O)ccc(S(C)(=O)=O)c1C1=NOC2CC12 (centres unmarked) [Compound 2.1] noted as 102 °C
